Origin of the recorded values: BindingDB's records for doi:10.1021/jm031046g

testedSystem: C-C chemokine receptor type 5 (Macaca fascicularis)
test: Antagonistic activity against monkey C-C chemokine receptor type 5.
So basically: is IC50 under 30 nM? Then YES. Not under? Then NO.

Known results for molecules:
| compoundStructure | labelClass |
| --- | --- |
| Cc1cccc(C)c1C(=O)N1CCC(C)(N2CCC(Nc3ccc(C(F)(F)F)cc3)CC2)CC1 | YES |
| Cc1cccc(C)c1C(=O)N1CCC(C)(N2CCC(Nc3cccc4ccn(C)c34)CC2)CC1 | NO |
| Cc1cccc(C)c1C(=O)N1CCC(C)(N2CCC(N(Cc3ccccc3)c3ccc(Br)cc3)CC2)CC1 | YES |
| Cc1cc[n+]([O-])c(C)c1C(=O)N1CCC(N2CCC(N(c3ccccc3)c3ccccc3)CC2)CC1 | NO |
| Cc1cccc(C)c1C(=O)N1CCC(C)(N2CCC(Nc3ccc4ccn(C)c4c3)CC2)CC1 | NO |

In the following, a different molecule is considered.
Lab note: confirm whether the reported IC50 for this molecule is below 30 nM, equality not counting. molecule: `Cc1ccccc1C(=O)N1CCC(C)(N2CCC(N(c3ccccc3)c3ccccc3)CC2)CC1`
YES
